- Measurement protocol: Human HepG2 cell viability assay in 384 well format
- Format: toxicity, cell-based
- Set-up: dose 125 nL, time 70.5 hour; concentration not given beside the values
- Condition: HepG2 cells, read-out: Inhibition
Quantity: cytotoxicity at 70.5 h (%)

CCOc1ccccc1NC(C)C(=O)N(C)Cc1cccc(F)c1 (stereo unspecified) : 6.19
O=C(O)C1c2nc[nH]c2CCN1Cc1cc(-c2ccccc2)no1 (stereo unspecified) : -4.98
O=C(c1ccnnc1)N1C[C@@H](OCc2cccnc2)[C@H]2OCCC[C@H]21 : 27.3
Cc1noc(C)c1-c1ccnc(C2CCN(C3CCOCC3)CC2)c1 : 0.77
Cc1cnn(CC2CCCCN2CCCS(=O)(=O)N(C)C)c1 (stereo unspecified) : 18.7
COc1c(C)cnc(CNCC(C)C)c1C : -4.09
CCCN1C[C@H]2CC[C@@H]1CN(Cc1cccc(O)c1)C2 : -9.57
CNC(C(=O)OC)c1cc(F)ccc1F (stereo unspecified) : -3.37
Cc1cccc2c1NC1(CCCC1)NC2=O : -13.5
CS(=O)(=O)CC(=O)N1C[C@H]2CCC[C@@]2(COCc2ccncc2)C1 : -3.98
O=C(CCS(=O)(=O)C1CCCC1)NCc1ccccc1Cn1cncn1 : -11
